Entry source: ChEMBL document CHEMBL5154898

Experiment: Chemical stability of compound in PBS buffer at pH 7.4 assessed as half life at 25 degreeC incubated for 7 days by HPLC based LC-MS analysis
Assay type: physicochemical
Conditions: time 7 day
Endpoint name: half-life

What value of half-life has been reported for the following compound? O=C(O)Cc1ccc(O)cc1Nc1c(Cl)cccc1Cl
10 h

----------
Biological target: Calcium/calmodulin-dependent protein kinase type II subunit alpha (Rattus norvegicus, UniProt P11275)
Sequence (P11275 whole entry): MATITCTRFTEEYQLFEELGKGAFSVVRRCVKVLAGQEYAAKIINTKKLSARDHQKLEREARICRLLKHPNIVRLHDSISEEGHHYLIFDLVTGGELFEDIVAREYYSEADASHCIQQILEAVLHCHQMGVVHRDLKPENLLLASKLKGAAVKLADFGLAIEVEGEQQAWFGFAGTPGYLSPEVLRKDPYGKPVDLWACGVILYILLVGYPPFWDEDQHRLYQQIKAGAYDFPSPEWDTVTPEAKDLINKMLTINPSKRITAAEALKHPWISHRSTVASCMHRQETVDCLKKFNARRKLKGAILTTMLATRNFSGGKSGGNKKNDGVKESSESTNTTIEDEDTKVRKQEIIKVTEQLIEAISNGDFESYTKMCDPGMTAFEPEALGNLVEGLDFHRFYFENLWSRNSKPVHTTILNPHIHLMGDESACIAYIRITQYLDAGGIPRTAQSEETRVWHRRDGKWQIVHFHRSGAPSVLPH
Experiment: Inhibition of [3H]NCS-382 binding to CaMK2alpha in rat cerebrocortical membranes
Type: cell membranes, Cerebral cortex, Membrane
Endpoint name: Ki (nM)
Give just the number in nM; leave the unit off.

> print(dat)
                                   molecule  endpoint.name  output.unit  quantitative.readout
1  O=C(O)Cc1cccc(O)c1 [3-Hydroxyphenylacetate]             Ki           nM                   126

What value of Ki has been reported for the following molecule? O=C(O)Cc1ccccc1O
2000

----------
Test: Plasma concentration in C57BL/6J mouse at 10 mg/kg , po measured after 30 mins by UPLC based tandem mass spectrometry analysis
Type: ADME, organism-based
Here the recorded concentration at 0.5 h is given for each entry.
Give just the number in ng/mL; leave the unit off.

> print(dat)
                   record.smiles  quantitative.readout
1  O=C(O)Cc1ccc(O)cc1Oc1ccccc1Cl                 29400

What value of concentration at 0.5 h has been reported for the following compound? Oc1ccc(Oc2ccccc2Cl)c(Cc2nnn[nH]2)c1
1970

----------
System: MDR1 (P-gp)
Assay: Apparent permeability across basolateral to apical side in dog MDCKII-MDR1 cells at 3 uM measured after 60 to 90 mins by LC-MS/MS analysis
Format: ADME, cell-based, Canis lupus familiaris
Conditions: MDCK-MDR1, time 60-90 min
Endpoint name: Papp B→A at 3 µM
Could you give the number and then its unit, please?

What value of Papp B→A at 3 µM has been reported for the following compound? O=C(O)Cc1ccc(O)cc1Nc1c(Cl)cccc1Cl
3.73 ×10⁻⁶ cm/s

----------
Target: Calcium/calmodulin-dependent protein kinase type II subunit alpha (Rattus norvegicus, UniProt P11275)
Assay: Displacement of [3H]HOCPCA from CaMK2alpha in rat brain cerebral cortex membrane homogenates assessed as inhibition constant measured after 60 mins by TopCount scintillation counting method
Assay type: cell membranes
Here the recorded Ki is given for each entry.
Give just the number in nM; leave the unit off.

Some compounds with known Ki results, for comparison:
> print(dat)
                         record.smiles  endpoint.name  output.unit  quantitative.readout
1        O=C(O)Cc1ccc(O)cc1Oc1ccccc1Cl             Ki           nM                    53
2  Oc1ccc(Oc2ccccc2Cl)c(-c2nnn[nH]2)c1             Ki           nM                 40000

What value of Ki has been reported for the following compound? Oc1ccc(Oc2ccccc2Cl)c(Cc2nnn[nH]2)c1
94
